Provide the reported IC50 of each item.
biological target: intracellular phosphorylation of EGFR in NCI-H1975 cell line that harbors the EGFR L858R T790M mutations (Homo sapiens, UniProt P00533, L858R/T790M); construct: NCI-H1975 cell line that harbors the EGFR L858R T790M mutations (ATCC, CRL-5908); host or cells: NCI-H1975; assay: NCI-H1975 pEGFR AlphaLISA assay; assay type: cell-based; details: NCI-H1975 cells (EGFR L858R T790M), p-EGFR (Tyr1068), 4-5 hours incubation; read-out: Ext pEGFR H1975 GMean IC50 (nM) Protocol: @Pharmaron AlphaLISA (Num)
Sequence (P00533 25-1210 T790M/L858R): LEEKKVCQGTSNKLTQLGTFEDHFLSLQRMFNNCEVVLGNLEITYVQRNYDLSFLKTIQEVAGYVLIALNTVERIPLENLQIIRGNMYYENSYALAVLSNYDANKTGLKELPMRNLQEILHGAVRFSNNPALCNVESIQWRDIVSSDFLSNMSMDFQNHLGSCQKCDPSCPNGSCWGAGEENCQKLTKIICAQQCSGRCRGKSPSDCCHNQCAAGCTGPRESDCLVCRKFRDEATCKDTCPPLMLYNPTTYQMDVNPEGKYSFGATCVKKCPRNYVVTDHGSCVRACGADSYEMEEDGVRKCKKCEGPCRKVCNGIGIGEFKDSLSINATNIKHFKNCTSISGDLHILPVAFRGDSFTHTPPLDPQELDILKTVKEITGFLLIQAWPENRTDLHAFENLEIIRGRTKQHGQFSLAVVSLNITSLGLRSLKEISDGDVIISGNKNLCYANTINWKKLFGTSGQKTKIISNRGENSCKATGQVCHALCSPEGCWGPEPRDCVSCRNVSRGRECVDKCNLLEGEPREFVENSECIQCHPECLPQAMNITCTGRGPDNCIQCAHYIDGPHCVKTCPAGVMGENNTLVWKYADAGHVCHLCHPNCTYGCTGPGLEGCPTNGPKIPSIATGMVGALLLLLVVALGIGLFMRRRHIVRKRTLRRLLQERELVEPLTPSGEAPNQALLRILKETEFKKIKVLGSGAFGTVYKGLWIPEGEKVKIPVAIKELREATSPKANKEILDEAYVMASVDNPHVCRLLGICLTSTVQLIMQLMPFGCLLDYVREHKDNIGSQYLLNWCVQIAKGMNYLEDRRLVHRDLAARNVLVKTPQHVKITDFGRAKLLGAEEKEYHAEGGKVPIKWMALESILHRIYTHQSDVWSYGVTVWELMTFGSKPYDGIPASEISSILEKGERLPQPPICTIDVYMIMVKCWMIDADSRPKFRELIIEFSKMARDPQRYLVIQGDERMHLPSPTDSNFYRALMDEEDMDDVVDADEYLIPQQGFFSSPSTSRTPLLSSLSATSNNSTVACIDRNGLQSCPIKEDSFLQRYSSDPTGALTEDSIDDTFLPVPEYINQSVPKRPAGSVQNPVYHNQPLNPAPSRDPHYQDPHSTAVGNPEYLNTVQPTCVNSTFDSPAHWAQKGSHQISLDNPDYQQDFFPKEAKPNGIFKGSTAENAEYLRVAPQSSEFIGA
Where a name gives a salt, the structure may show the parent alone.

input: Field request: IC50 | item: C[C@@H](CO)c1cnc(N2CC[C@@H]2C)c2cnc(Nc3ccnc(N4CC[C@@H](O)[C@@](C)(F)C4)n3)cc12 (single isomer, unassigned)
output: 10 to 20 nM

input: Another molecule to look at: CC(C)c1cnc(N2CCC23CNC3)c2cnc(Nc3ccnc(N4CC[C@@]5(CCO5)C(F)(F)C4)n3)cc12 (single isomer, unassigned)
output: > 50 nM

input: Another molecule to look at: `CC(C)c1cnc(N2CC(CC(=O)N(C)C)C2)c2cnc(Nc3ccnc(N4CC[C@@H](O)[C@@](C)(F)C4)n3)cc12`
output: 30 to 50 nM

input: Another molecule to look at: `CC(C)c1cnc(N2CC(N3CCCC3=O)C2)c2cnc(Nc3ccnc(N4CC[C@@H](O)[C@@](C)(F)C4)n3)cc12`
output: > 50 nM

input: Another molecule to look at: CC(C)c1cnc(-c2cnn(C)c2CN(C)C)c2cnc(Nc3ccnc(N4CC[C@@H](O)[C@@](C)(F)C4)n3)cc12 [Example 13, trifluoroacetate]
output: > 50 nM

input: Another molecule to look at: `CC(C)c1cnc(N2CC(F)(CO)C2)c2cnc(Nc3ccnc(N4CC[C@@H](O)[C@@](C)(F)C4)n3)cc12`
output: > 50 nM

input: Another molecule to look at: `CC(C)c1cnc(N2C[C@H](O)[C@H]2C)c2cnc(Nc3ccnc(N4CC[C@@H](O)[C@@H](F)C4)n3)cc12`
output: 10 to 20 nM

input: Another molecule to look at: C[C@H](CC#N)c1cnc(N2CC[C@H]2C)c2cnc(Nc3ccnc(N4CC[C@@H](O)[C@@](C)(F)C4)n3)cc12 (single isomer, unassigned) [Example 36]
output: < 10 nM

input: Another molecule to look at: `COCC1(F)CN(c2ncc(C(C)C)c3cc(Nc4ccnc(N5CC[C@@H](O)[C@@](C)(F)C5)n4)ncc23)C1`
output: 30 to 50 nM

input: Another molecule to look at: `CC(C)c1ccc([C@H]2C[C@H](CS(C)(=O)=O)C2)c2cnc(Nc3ccnc(N4CC[C@@H](O)[C@@](C)(F)C4)n3)cc12`
output: < 10 nM

input: Another molecule to look at: `CC(C)c1ccc(N2C[C@H](O)[C@H]2C)c2cnc(Nc3ccnc(N4CC[C@@H](O)[C@@](C)(F)C4)n3)cc12`
output: 10 to 20 nM

input: Another molecule to look at: `CC(C)c1cnc(N2CC(O)C2)c2cnc(Nc3ccnc(N4CCC5(CCO5)CC4)n3)cc12`
output: > 50 nM

input: Another molecule to look at: `[2H]C([2H])([2H])O[C@@H]1CCN(c2nccc(Nc3cc4c(C(C)C)cnc(N5C[C@H](OCCO)[C@H]5C)c4cn3)n2)C[C@@H]1F`
output: < 10 nM

---

Provide the reported IC50 of each item.
target: EGFR (L858R T790M C797S) (Homo sapiens, UniProt P00533, C797S/L858R/T790M); construct: purchased SignalChem E10-122VG; assay: Biochemical EGFR inhibition assay (Caliper mobility shift), EGFR LRTMCS; details: LRTMCS (PH) IC50 (nM) @ 1 mM ATP (Num), EGFR LRTMCS mutant
Sequence (P00533 25-1210 T790M/C797S/L858R): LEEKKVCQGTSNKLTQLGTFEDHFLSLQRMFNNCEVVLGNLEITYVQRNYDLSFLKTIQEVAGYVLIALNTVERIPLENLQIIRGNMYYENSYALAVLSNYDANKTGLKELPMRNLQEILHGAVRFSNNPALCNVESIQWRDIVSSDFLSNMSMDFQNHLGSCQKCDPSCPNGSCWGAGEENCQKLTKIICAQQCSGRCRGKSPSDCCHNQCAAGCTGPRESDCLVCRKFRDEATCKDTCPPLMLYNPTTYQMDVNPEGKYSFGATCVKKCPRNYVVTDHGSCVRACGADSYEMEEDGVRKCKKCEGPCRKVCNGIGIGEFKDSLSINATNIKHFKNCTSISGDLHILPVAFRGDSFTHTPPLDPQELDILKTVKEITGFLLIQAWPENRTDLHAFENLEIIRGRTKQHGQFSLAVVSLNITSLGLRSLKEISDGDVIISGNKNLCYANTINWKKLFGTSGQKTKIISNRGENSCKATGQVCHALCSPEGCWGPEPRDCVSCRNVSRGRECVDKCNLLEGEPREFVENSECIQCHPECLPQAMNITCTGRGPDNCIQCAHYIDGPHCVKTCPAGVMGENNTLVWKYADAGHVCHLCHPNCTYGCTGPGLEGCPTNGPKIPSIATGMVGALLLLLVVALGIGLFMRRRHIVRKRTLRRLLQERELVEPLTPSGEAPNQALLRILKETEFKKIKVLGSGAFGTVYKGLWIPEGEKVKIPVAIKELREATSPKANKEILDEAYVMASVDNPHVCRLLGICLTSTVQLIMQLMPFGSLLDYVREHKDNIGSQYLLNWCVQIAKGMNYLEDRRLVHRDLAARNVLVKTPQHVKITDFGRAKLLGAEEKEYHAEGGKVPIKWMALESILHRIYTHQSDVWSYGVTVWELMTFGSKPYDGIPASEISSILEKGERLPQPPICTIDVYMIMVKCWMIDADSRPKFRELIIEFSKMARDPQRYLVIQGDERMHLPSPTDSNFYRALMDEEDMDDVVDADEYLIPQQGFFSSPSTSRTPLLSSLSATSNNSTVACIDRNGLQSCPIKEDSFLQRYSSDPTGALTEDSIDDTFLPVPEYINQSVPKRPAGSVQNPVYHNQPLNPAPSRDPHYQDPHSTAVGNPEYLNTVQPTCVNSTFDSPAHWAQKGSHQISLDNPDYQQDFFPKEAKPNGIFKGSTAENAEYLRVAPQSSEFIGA

input: Field request: IC50 | item: CC(C)c1cnc(N2CC[C@H](O)[C@H]2C)c2cnc(Nc3ccnc(N4CC[C@@H](O)[C@@](C)(F)C4)n3)cc12 [Example 81]
output: 15 to 20 nM

input: Another molecule to look at: CC(=O)NCC1CCN1c1ncc(C(C)C)c2cc(Nc3ccnc(N4CC[C@@H](O)[C@@](C)(F)C4)n3)ncc12 (some centres unmarked) [Example 70]
output: 15 to 20 nM

input: Another molecule to look at: CC(C)c1cnc(N2CC(C3COC3)C2)c2cnc(Nc3ccnc(N4CC[C@@H](O)[C@@](C)(F)C4)n3)cc12 [Example 101]
output: < 15 nM

input: Another molecule to look at: CO[C@H]1CCN(c2nccc(Nc3cc4c(C(C)C)ccc(N5C[C@H](c6nncn6C)[C@H]5C)c4cn3)n2)C[C@@H]1O (single isomer, unassigned) [Example 218]
output: < 15 nM

input: Another molecule to look at: CC(C)c1ccc([C@H]2C[C@H](CS(C)(=O)=O)C2)c2cnc(Nc3ccnc(N4CC[C@@H](O)[C@@](C)(F)C4)n3)cc12 [Example 1]
output: < 15 nM

input: Another molecule to look at: CC(C)c1cnc(N2CC[C@H]2C)c2cnc(Nc3ccnc(N4CC[C@H](OCCO)[C@H](F)C4)n3)cc12 [Example 141]
output: < 15 nM

input: Another molecule to look at: CC(C)c1ncc(N2CC(F)C2)c2cnc(Nc3ccnc(N4CC[C@@H](O)[C@@](C)(F)C4)n3)cc12 [Example 49]
output: 15 to 20 nM

input: Another molecule to look at: CNC(=O)CC1CN(c2ncc(C(C)C)c3cc(Nc4ccnc(N5CC[C@@H](O)[C@@](C)(F)C5)n4)ncc23)C1 [Example 87]
output: < 15 nM

input: Another molecule to look at: CNC(=O)C1CN(c2ncc(C(C)C)c3cc(Nc4ccnc(N5CC[C@@H](O)[C@@](C)(F)C5)n4)ncc23)C1 [Example 80]
output: < 15 nM

input: Another molecule to look at: CC(C)c1cnc(N2CC3(CCO3)C2)c2cnc(Nc3ccnc(N4CC[C@@H](O)[C@@](C)(F)C4)n3)cc12 [Example 54]
output: 15 to 20 nM

input: Another molecule to look at: [2H]C([2H])([2H])O[C@H]1CN(c2ncc(C(C)C)c3cc(Nc4ccnc(N5CC[C@@H](O)[C@@](C)(F)C5)n4)ncc23)[C@@H]1C [Example 108]
output: < 15 nM

input: Another molecule to look at: CC(C)c1ccc(N2CC(Cn3ccnn3)C2)c2cnc(Nc3ccnc(N4CC[C@](C)(O)[C@H](F)C4)n3)cc12 [Example 40]
output: < 15 nM

input: Another molecule to look at: CC(C)c1cnc(-c2cn(C)nn2)c2cnc(Nc3ccnc(N4CCC5(CCO5)CC4)n3)cc12 [Example 23]
output: < 15 nM

input: Another molecule to look at: CC(C)c1cnc(N2CC(n3ccnc3)C2)c2cnc(Nc3ccnc(N4CC[C@@H](O)[C@@](C)(F)C4)n3)cc12 [Example 219]
output: 20 to 30 nM

input: Another molecule to look at: Cc1nnc(-c2ncc(C(C)C)c3cc(Nc4ccnc(N5CC[C@@H](O)[C@@](C)(F)C5)n4)ncc23)o1 [Example 5]
output: < 15 nM

input: Another molecule to look at: CC(C)c1cnc(N2CC[C@H](S(C)(=O)=O)C2)c2cnc(Nc3ccnc(N4CC[C@@H](O)[C@@](C)(F)C4)n3)cc12 [Example 75]
output: 15 to 20 nM

input: Another molecule to look at: CC(C)c1cnc(N2CC(F)(CO)C2)c2cnc(Nc3ccnc(N4CC[C@@H](O)[C@@](C)(F)C4)n3)cc12 [Example 67]
output: 15 to 20 nM

input: Another molecule to look at: CC(C)c1cnc(N2C[C@@H](C(=O)N(C)C)[C@@H]2C)c2cnc(Nc3ccnc(N4CC[C@@H](O)[C@@](C)(F)C4)n3)cc12 (single isomer, unassigned) [Example 155]
output: < 15 nM

input: Another molecule to look at: CO[C@H]1CN(c2ncc([C@@H](C)CO)c3cc(Nc4ccnc(N5CC[C@@H](O)[C@@](C)(F)C5)n4)ncc23)[C@@H]1C (single isomer, unassigned) [Example 212]
output: < 15 nM

input: Another molecule to look at: CC(C)c1cnc(N2CC(O)(CC#N)C2)c2cnc(Nc3ccnc(N4CC[C@@H](O)[C@@](C)(F)C4)n3)cc12 [Example 72]
output: 15 to 20 nM

input: Another molecule to look at: CC(C)c1cnc(N2C[C@@H](F)[C@@H](F)C2)c2cnc(Nc3ccnc(N4CC[C@@H](O)[C@@](C)(F)C4)n3)cc12 [Example 56]
output: < 15 nM

input: Another molecule to look at: CO[C@@H]1CCN(c2nccc(Nc3cc4c(C(C)C)ncc(N5C[C@H](O)[C@H]5C)c4cn3)n2)C[C@@H]1O (single isomer, unassigned) [Example 119]
output: 20 to 30 nM

input: Another molecule to look at: CC(C)c1ccc(N2CCC2)c2cnc(Nc3ccnc(N4CC[C@@H](O)[C@@](C)(F)C4)n3)cc12 [Example 110]
output: 30 to 100 nM

Numbers sourced from patent US20240382483A1.
